protocol.text: Inhibition of HDAC1/FLAG-tagged CoREST (unknown origin) expressed in HEK293F cells using p53 (379 to 382 residues) (RHKK(Ac) as substrate incubated for 30 mins by fluorescence method
Design: species or system Homo sapiens
measurement.name: IC50 (nM)
Quick note: give the figure in nM, leave out the unit.

# query: IC50 of entry Nc1ccccc1NC(=O)c1ccc(CCCC(=O)Nc2ccc(C3CC3N)cc2)cc1 (stereo unspecified)
230

----------
# key: entry, value: pKi
experimental.system: Amine oxidase [flavin-containing] B (Homo sapiens, UniProt P27338)
Sequence (P27338 whole entry): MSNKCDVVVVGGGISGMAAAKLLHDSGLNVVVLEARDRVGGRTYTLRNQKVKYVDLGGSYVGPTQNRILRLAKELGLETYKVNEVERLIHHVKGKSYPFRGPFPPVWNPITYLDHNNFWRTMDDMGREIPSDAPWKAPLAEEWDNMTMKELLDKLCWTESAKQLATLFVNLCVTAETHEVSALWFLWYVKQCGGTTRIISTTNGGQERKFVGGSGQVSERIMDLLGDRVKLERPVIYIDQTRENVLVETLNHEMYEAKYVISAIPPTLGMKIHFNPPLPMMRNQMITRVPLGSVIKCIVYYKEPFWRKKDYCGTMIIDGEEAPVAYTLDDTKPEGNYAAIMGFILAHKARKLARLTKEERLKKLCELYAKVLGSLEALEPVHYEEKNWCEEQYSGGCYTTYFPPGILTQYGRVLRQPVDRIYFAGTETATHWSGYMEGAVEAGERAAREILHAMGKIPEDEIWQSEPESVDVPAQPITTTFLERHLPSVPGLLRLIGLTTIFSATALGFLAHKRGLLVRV
protocol.text: biochemical
pKi: −log10 of the molar value.

# query: pKi of entry CN1CCN(C(=O)CNC2CC2c2cc(F)cc(F)c2OCc2ccccc2)CC1 (stereo not drawn)
< 3.60

# query: pKi of entry N[C@H]1CCN(C(=O)CNC2CC2c2cc(F)cc(F)c2OCc2ccccc2)C1 (stereo partly drawn)
< 3.60

# query: pKi of entry NC1CC1c1cc(F)cc(F)c1OCc1ccccc1 (stereo not drawn)
4.48

----------
experimental.system: Amine oxidase [flavin-containing] B (Homo sapiens)
protocol.text: Inhibition of human MAO-B expressed in baculovirus infected BTI insect cells preincubated for 10 mins followed by substrate addition and measured after 60 mins by luciferin-based luminescence assay
measurement.name: IC50

# query: IC50 of entry `Cn1cc(C(=O)Nc2ccc([C@@H]3C[C@H]3NCC3CC3)cc2)cn1`
> 100 µM

----------
experimental.system: Lysine-specific histone demethylase 1A (Homo sapiens)
protocol.text: Inhibition of His-tagged full length human LSD1 expressed in Escherichia coli BL21 RIPL Codon Plus (DE3) using ARTK(me2)QTARKSTGGKAPRKQLA as substrate preincubated for 10 mins followed by substrate addition by amplex ultra red and HRP reagent based fluorescence method
measurement.name: IC50 (nM)
Quick note: give the figure in nM, leave out the unit.

# query: IC50 of entry `N[C@@H]1C[C@H]1c1ccc(C(=O)NCc2ccccc2)cc1`
300

----------
System: THP-1
protocol.text: Antiproliferative activity against human THP-1 cells incubated for 72 hrs by CellTiter-glo assay
Assay type: functional, cell-based
measurement.context: THP-1, 72 h
measurement.name: IC50 (nM)
Quick note: give the figure in nM, leave out the unit.

# query: IC50 of entry `N[C@@H]1C[C@H]1c1ccc(C(=O)NCc2ccccc2)cc1`
100
